assay: qHTS assay to identify small molecule agonists of H2AX (AID 1224845); conditions: CHO-K1 phospho-H2AX Ser139 HTRF, 3 h; series mostly up to 154 µM
Inconclusive results are not listed. Active and inactive are the calls of the source. Calls come from the whole dose curve; as a rule, active = well fitted activation curve with a large enough effect in the signal ratio in the repeat runs (not every such curve was filed as active); inconclusive = weak or mixed curves; inactive = flat fitted curve, though single readings scatter; the % refers to the signal ratio.
outcome_measure: activation (H2AX phosphorylation)

Clc1cccnc1: inactive
CC1CCCCN1CCCOC(=O)c1ccc(OC2CCCCC2)cc1 (stereo not drawn): inactive
CC1(C)COCN1: inactive

----------
target: Androgen receptor (Homo sapiens); experiment: qHTS assay to identify small molecule antagonists of the androgen receptor (AR) signaling pathway using the MDA cell line (AID 743042; note: nearly all actives have a fitted effect of over 55% in size; note: potency is the fitted concentration of half-maximal effect); settings: MDA-kb2 AR-luc, MMTV luciferase, R1881 antagonist, 16 h; series mostly up to 70.3 µM
Results filed as inconclusive are left out. Activity calls are given as the source filed them. Calls come from the whole dose curve; as a rule, active = well fitted inhibition curve with a large enough effect in the repeat runs; inconclusive = weak or mixed curves, or effect the other way; inactive = no such curve, though single readings can be large or run the other way.
outcome_measure: Potency

Examples with their reported Potency follow.
CN1CCN(C2Cc3ccccc3Sc3ccc(Cl)cc32)CC1 (stereo not given): inactive
COCC(=O)O[C@]1(CCN(C)CCCc2nc3ccccc3[nH]2)CCc2cc(F)ccc2[C@@H]1C(C)C: 7.5 µM (active)
CCC(C)(C)c1cc(O)c(C(C)(C)CC)cc1O: inactive
CC(C)(c1cc(Br)c(OCCO)c(Br)c1)c1cc(Br)c(OCCO)c(Br)c1: 42.3 µM (active)
O=C1C=CC(=O)N1c1ccccc1: 27.3 µM (active)

So what Potency did O=C(O)c1cccc(Cl)n1 get with Androgen receptor (Homo sapiens)?
inactive

All values here come from PubChem BioAssay (Tox21).
